// Ki collected for UniProtKB P41143
Answer with a number only, understood to be in µM.

1. O=C(CN1CCC[C@@H]1C(=O)Nc1nccs1)Nc1cccc(F)c1 [MCKK-17R] | 286

Let's switch to this molecule now.
Request - read-out Ki | tested on UniProtKB P41143 | molecule O=S1(=O)CCC(NCc2cccc(OCCn3ccnc3)c2)C1 (stereo not drawn) 300

###

Below are Ki values recorded for KOP receptor (Homo sapiens).
Give a bare numeral; the unit µM is implied.

Sample records with Ki:
1. O=C(Nc1cccc(-n2cccn2)c1)C1CCCN1Cc1c[nH]cn1 (stereo not drawn) | 292
2. O=C(CN1CCC[C@H]1C(=O)Nc1nccs1)Nc1cccc(F)c1 [MCKK-17S] | 123

Kindly review the next molecule as well.
Please look up its Ki: O=C(CN1CCC[C@@H]1C(=O)Nc1nccs1)Nc1cccc(F)c1 [MCKK-17R] 2900

###

tgt: DOP receptor (Homo sapiens)
experimental_details: BRET-based G protein activation assay
details: read-out: potency of G protein activation at DOP
pEC50: −log10 of the molar value.
This listing pairs compounds with measured pEC50.

Answered examples (2):
1) O=C(CN1CCCC1C(=O)Nc1nccs1)Nc1cccc(F)c1 (racemic) | < 3.00
2) O=C(CN1CCC[C@@H]1C(=O)Nc1nccs1)Nc1cccc(F)c1 [MCKK-17R] | < 3.00

Turning now to a further record.
For O=C(CN1CCC[C@H]1C(=O)Nc1nccs1)Nc1cccc(F)c1 [MCKK-17S] , what is its reported pEC50? < 3.00

###

tgt: KOP receptor (Homo sapiens, UniProt P41145)
experimental_details: BRET-based G protein (GαoB) activation assay in HEK293T cells
Type: cell-based
Parameters: host or cells: HEK293T
details: hKOP co-expressed with GαoB-RLuc8, β1, mVenus-γ2; read-out: potency (EC50) of GαoB activation at hKOP
result_type: EC50 (µM)
# output: bare number, implied unit µM

May I ask what EC50 has been recorded for O=C(CN1CCCC1C(=O)Nc1nccs1)Nc1cccc(F)c1 (racemic) [MCKK-17] ? 8.3

Return reported EC50; argument: O=C(CN1CCC[C@@H]1C(=O)Nc1nccs1)Nc1cccc(F)c1 [MCKK-17R] 115

Item O=C(CN1CCC[C@H]1C(=O)Nc1nccs1)Nc1cccc(F)c1 [MCKK-17S] has what recorded EC50? 7.2
